Biological target: T1, human TIGIT-Fc (human, UniProt Q495A1 22-141, limits assumed)
T1 construct: not shown: Fc; not described
T1 sequence (looked up): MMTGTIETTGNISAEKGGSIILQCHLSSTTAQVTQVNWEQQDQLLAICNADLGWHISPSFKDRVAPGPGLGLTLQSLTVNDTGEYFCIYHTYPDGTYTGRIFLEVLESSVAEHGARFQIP
Experiment: CD155 competition ELISA, single point; also: test concentration or dose not given here

- binder: "TIGIT-SC183 (Fc fusion, VHH-Fc) VHH: EVQLVESGGGLVQPGGSLRLSCAASGFAFGDSWMGWFRQAPGKEREWVASVLRGGYTWYADSVKGRFTISADNSKNTAYLQMNSLKPEDTAVYYCAKDRSYSFDYWGQGTLVTVSS"
  OD (450 nm): "0.5 OD"
- binder: "TIGIT-SC80 (Fc fusion, VHH-Fc) VHH: EVQLVESGGGLVQPGGSLRLSCAASGNIPPINAMGWFRQAPGKEREFVAAINYSGGSTYYADSVKGRFTISADNSKNTAYLQMNSLKPEDTAVYYCARWHYDILTGYYWLDSWGQGTLVTVSS"
  OD (450 nm): "0.508 OD"
- binder: "TIGIT-SC178 (Fc fusion, VHH-Fc) VHH: EVQLVESGGGLVQPGGSLRLSCAASGFTLSPSWMGWFRQAPGKEREWVASVLRGGYTWYADSVKGRFTISADNSKNTAYLQMNSLKPEDTAVYYCASEVASGETDYWGQGTLVTVSS"
  OD (450 nm): "0.494 OD"
